From: patent US12240857B2

- Test system: Vero cells
- experimental.context: African green monkey
measurement.type: % cell viability at 10 μM (%)
All answers are understood in %, so give the number only.

Q: So what's the measured % cell viability at 10 μM for this one? CC(C)CN1CCOC(CNC(=O)C23CC4CC(C2)CC(c2ccccc2)(C4)C3)C1 (stereo not shown)
Result: 97

Q: So what's the measured % cell viability at 10 μM for this one? COc1ccc(C(CNC(=O)C23CC4CC(C2)CC(c2ccccc2)(C4)C3)N2CCOCC2)cc1 (stereo not shown)
Result: 95

# ---- query molecule ----
Q: So what's the measured % cell viability at 10 μM for this one? COc1ccc(N2CCN(CCCNC(=O)C34CC5CC(C3)CC(c3ccccc3)(C5)C4)CC2)cc1
Result: 25

---

- Test system: Vero cells
measurement.type: CC50

Q: So what's the measured CC50 for this one? Cc1ccccc1-c1nnn(CC(=O)NC(C)C23CC4CC(CC(C4)C2)C3)n1 (stereo not shown)
Result: > 10 µM

---

Measured CC50 by item
- protocol.text: in vitro
- experimental.context: African green monkey, Cytotox CC50

Example cases with answers are listed next.
Q: So what's the measured CC50 for this one? CN1CCC(NC(=O)C23CC4CC(C2)CC(c2ccccc2)(C4)C3)CC1 [Example A26]
Result: > 10 µM

Q: So what's the measured CC50 for this one? O=C(N1CCNCC1)C12CC3CC(C1)CC(c1ccccc1)(C3)C2 [Example A60]
Result: > 10 µM

Q: So what's the measured CC50 for this one? CC12CC3CC(C(=O)N[C@H]4CC[C@H](N)CC4)(C1)CC(c1ccccc1)(C3)C2.Cl (stereo partly drawn) [Example A78]
Result: > 10 µM

Q: So what's the measured CC50 for this one? O=C(NC1CCNCC1)C12CC3CC(C1)CC(c1ccccc1)(C3)C2 [Example A63]
Result: > 10 µM

Q: So what's the measured CC50 for this one? CC1CCCC(C)N1CC(O)COCCC12CC3CC(CC(C3)C1)C2 (stereo not drawn) [Example D8]
Result: 4 µM

More entries:
Q: So what's the measured CC50 for this one? CN(C)CCCNc1nc(C23CC4CC(CC(C4)C2)C3)cs1 [Example D29]
Result: > 10 µM

---

- System: EBOV mucin-domain-deleted glycoprotein pseudotyped VSV
- protocol.text: microbe, parasite or virus in culture
- Assay type: cell-based, Zaire ebolavirus
- experimental.context: Zaire ebolavirus, Vero, 24 h, read-out: EC50 EBOV
Measured log10(EC50) by item
On a log10 scale: recorded EC50, unit nM.

Example cases with answers are listed next.
Q: Find the measured log10(EC50): item CC(NC(=O)Cn1nnc(-c2ccco2)n1)C12CC3CC(CC(C3)C1)C2 (centres unmarked) [Example D47] , target or system EBOV mucin-domain-deleted glycoprotein pseudotyped VSV.
Result: 3.97

Q: Find the measured log10(EC50): item CCN1CCN(C(=O)C23CC4CC(C2)CC(c2ccc(C)cc2)(C4)C3)CC1 [Example B16] , target or system EBOV mucin-domain-deleted glycoprotein pseudotyped VSV.
Result: 3.00

# ---- query compound ----
Q: Find the measured log10(EC50): item CC1CCN(C[C@@H](O)COc2ccc(C34CC5CC(CC(C5)C3)C4)cc2)CC1 [Example D23] , target or system EBOV mucin-domain-deleted glycoprotein pseudotyped VSV.
Result: 1.78

---

- protocol.text: in vivo
- experimental.context: male, CD-1, mouse, iv, 1 mg/kg
measurement.type: AUC(0-t) (ng·h/mL)
All answers are understood in ng·h/mL, so give the number only.

Q: So what's the measured AUC(0-t) for this one? CC12CC3CC(C(=O)N[C@H]4CC[C@H](N)CC4)(C1)CC(c1ccccc1)(C3)C2.Cl (stereo partly shown)
Result: 539

---

- System: BDBV mucin-domain-deleted glycoprotein pseudotyped VSV
- protocol.text: microbe, parasite or virus in culture
- Format: cell-based, Bundibugyo ebolavirus
- experimental.context: Vesicular stomatitis virus, Vero, read-out: EC50 BDBV
Measured EC50 by item
All answers are understood in µM, so give the number only.

Q: So what's the measured EC50 for this one? O=C(NC1CCNCC1)C12CC3CC(C1)CC(c1ccc([N+](=O)[O-])cc1)(C3)C2
Result: 1.06

Q: So what's the measured EC50 for this one? CC12CC3CC(C(=O)N4CC5(CC(N)C5)C4)(C1)CC(c1ccccc1)(C3)C2 (centres unmarked)
Result: 0.19

Q: So what's the measured EC50 for this one? O=C(NC1CCNCC1)c1ccc(NCC23CC4CC(C2)CC(c2ccccc2)(C4)C3)nc1
Result: 1

Q: So what's the measured EC50 for this one? C[C@H]1CN(C(=O)C23CC4CC(C)(C2)CC(c2ccccc2)(C4)C3)CCN1 (some centres unmarked)
Result: 0.16

Q: So what's the measured EC50 for this one? CC12CC3CC(CNC4CCNCC4)(C1)CC(c1ccccc1)(C3)C2 (centres unmarked)
Result: 0.21

Q: So what's the measured EC50 for this one? CC12CC3CC(C(=O)Nc4ccnc(N)c4)(C1)CC(c1ccccc1)(C3)C2 (centres unmarked)
Result: 1.02

More entries:
Q: So what's the measured EC50 for this one? O=C(N1CC2(CCN(Cc3ccccc3)C2)C1)C12CC3CC(C1)CC(c1ccccc1)(C3)C2
Result: 0.21

Q: So what's the measured EC50 for this one? O=C(CC12CC3CC(C1)CC(c1ccccc1)(C3)C2)N[C@@H]1CCN(Cc2ccccc2)C1
Result: 0.29

Q: So what's the measured EC50 for this one? COC(=O)c1ccc(COc2ccccc2CN2CCN(C(=O)CNC(=O)C34CC5CC(C3)CC(c3ccccc3)(C5)C4)CC2)cc1
Result: 1.24

Q: So what's the measured EC50 for this one? O=C(CC1(c2ccccc2)C2CC3CC(C2)CC1C3)NC1CCNCC1 (centres unmarked)
Result: 0.19

Q: So what's the measured EC50 for this one? CN(C(=O)C12CC3CC(C1)CC(c1ccccc1)(C3)C2)C1CCN(Cc2ccccc2)CC1
Result: 0.17

Q: So what's the measured EC50 for this one? O=C(CC1CCNCC1)NC12CC3CC(C1)CC(c1ccccc1)(C3)C2
Result: 0.79

Q: So what's the measured EC50 for this one? CC1CCN(C[C@@H](O)COCCC23CC4CC(C2)CC(c2ccccc2)(C4)C3)CC1
Result: 0.11

Q: So what's the measured EC50 for this one? c1cc(C23CC4CC(CC(C4)C2)C3)ccc1OCCCN1CCCCC1
Result: 0.55

Q: So what's the measured EC50 for this one? CC12CC3CC(C(=O)N[C@@H]4CCNC[C@H]4F)(C1)CC(c1ccccc1)(C3)C2 (some centres unmarked)
Result: 0.21

Q: So what's the measured EC50 for this one? O=C(N1CC2CC1CN2Cc1ccccc1)C12CC3CC(C1)CC(c1ccccc1)(C3)C2 (centres unmarked)
Result: 0.41

---

Measured EC50 by item
- Test system: EBOV (Mayinga)
- protocol.text: microbe, parasite or virus in culture
- Format: cell-based, Zaire ebolavirus
- experimental.context: Zaire ebolavirus, Vero
All answers are understood in nM, so give the number only.

Q: So what's the measured EC50 for this one? CCC12CC3CC(C(=O)NC4CCNCC4)(C1)CC(c1ccccc1)(C3)C2 (centres unmarked) [Example A80]
Result: 890

Q: So what's the measured EC50 for this one? CC12CC3CC(C(=O)N[C@H]4CC[C@H](N)CC4)(C1)CC(c1ccccc1)(C3)C2.Cl (some centres unmarked) [Example A78]
Result: 1100

---

- Tested on: EBOV mucin-domain-deleted glycoprotein pseudotyped VSV
- protocol.text: microbe, parasite or virus in culture
- Format: cell-based, Zaire ebolavirus
- experimental.context: Zaire ebolavirus, Vero, 24 h, read-out: EC50 EBOV
// assign Met if EC50 falls strictly below 200 nM, else Not met (ties count as Not met)

Q: Bench note: check whether Cc1ccc(C23CC4CC(CC(C(=O)N5CCN(Cc6ccccc6)CC5)(C4)C2)C3)cc1 shows EC50 below 200 nM
Result: Not met

Q: Bench note: check whether CC1CCCCN1CC(O)COC12CC3CC(CC(C3)C1)C2 (stereo not drawn) shows EC50 below 200 nM
Result: Not met

Q: Bench note: check whether OCCN(CCO)CC(O)COCCC12CC3CC(CC(C3)C1)C2 (stereo not drawn) shows EC50 below 200 nM
Result: Not met

Q: Bench note: check whether OC(COc1ccc(C23CC4CC(CC(C4)C2)C3)cc1)CN1CCN(Cc2ccc3c(c2)OCO3)CC1 (stereo not drawn) shows EC50 below 200 nM
Result: Not met

Q: Bench note: check whether OC(COC12CC3CC(CC(C3)C1)C2)CN1CCc2ccccc2C1 (stereo not drawn) shows EC50 below 200 nM
Result: Not met

More entries:
Q: Bench note: check whether CCN1CCN(CC(O)COc2ccc(C34CC5CC(CC(C5)C3)C4)cc2)CC1 (stereo not drawn) shows EC50 below 200 nM
Result: Met

Q: Bench note: check whether O=C(NC1CCNCC1)C12CC3CC(CC(C3)C1)C2 shows EC50 below 200 nM
Result: Not met
